- assay-target: UniProt:Q9UNQ0
- Sequence (Q9UNQ0 whole entry): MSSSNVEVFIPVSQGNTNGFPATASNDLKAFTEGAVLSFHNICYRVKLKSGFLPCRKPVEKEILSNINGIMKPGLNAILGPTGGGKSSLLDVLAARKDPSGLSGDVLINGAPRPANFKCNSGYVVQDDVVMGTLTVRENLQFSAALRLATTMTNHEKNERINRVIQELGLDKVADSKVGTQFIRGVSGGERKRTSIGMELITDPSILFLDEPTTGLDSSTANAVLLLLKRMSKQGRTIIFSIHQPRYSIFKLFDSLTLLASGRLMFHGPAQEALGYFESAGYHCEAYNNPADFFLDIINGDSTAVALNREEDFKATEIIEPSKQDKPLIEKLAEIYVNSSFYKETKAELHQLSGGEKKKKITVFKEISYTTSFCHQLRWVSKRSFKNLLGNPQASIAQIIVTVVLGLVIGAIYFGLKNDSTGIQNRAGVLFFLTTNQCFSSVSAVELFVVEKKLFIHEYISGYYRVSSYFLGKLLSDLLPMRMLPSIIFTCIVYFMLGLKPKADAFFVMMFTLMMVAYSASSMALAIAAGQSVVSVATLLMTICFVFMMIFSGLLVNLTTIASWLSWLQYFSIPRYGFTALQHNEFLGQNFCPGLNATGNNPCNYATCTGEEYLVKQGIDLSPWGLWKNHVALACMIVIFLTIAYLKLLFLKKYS
- protocol-summary: Inhibition of BCRP (unknown origin) expressed in dog MDCK-II cells using pheophorbide A as substrate preincubated for 20 mins followed by substrate addition and measured after 120 mins by flow cytometry analysis
- Assay type: cell-based
measure: IC50 (µM)
Numbers only, in µM.

- c1ccc2c(CCN3CCN(c4ncnc5c4[nH]c4ccccc45)CC3)c[nH]c2c1: 6.21
- N#Cc1cn(C2CC2)c2c(N3CCN(CCc4c[nH]c5ccccc45)CC3)ncnc12: 18.9

Now let's try a different one.
-- ask Note IC50 for the compound shown: CCn1cc(C#N)c2ncnc(N3CCN(CCc4c[nH]c5ccccc45)CC3)c21
-- reply 13.8

Reference source for all entries: ChEMBL document CHEMBL5260824
